- MEASUREMENT NOTES: Toxicity in zebrafish embryo assessed as survival rate at 1 to 5 uM measured after 72 hrs post fertilization
- Design: species or system Danio rerio
- CONDITION NOTES: in vivo, dose 1-5 µM

- STRUCTURE SMILES STRING: "Nc1ccccc1NC(=O)c1ccc(Cc2cn(S(=O)(=O)c3ccccc3)c3ccccc23)cc1"
  survival at 72 h, up to 5 µM: "~100%"

###

- Test system: A549
- MEASUREMENT NOTES: cells
- Assay type: functional, cell-based
- CONDITION NOTES: Homo sapiens, A549, 48 h
- Description: Anticancer activity against human A549 cells assessed as inhibition of cell growth measured for 48 hrs by MTT assay
pIC50: −log10 of the molar value.

- STRUCTURE SMILES STRING: "COc1ccc(S(=O)(=O)n2cc(Cc3ccc(C(=O)Nc4ccccc4N)cc3)c3ccccc32)cc1"
  pIC50: 5.60
- STRUCTURE SMILES STRING: "Nc1ccccc1NC(=O)c1ccc(Cc2cn(S(=O)(=O)c3ccccc3)c3ccccc23)cc1"
  pIC50: 5.31

###

- MEASUREMENT NOTES: Toxicity in zebrafish embryo assessed as survival rate at 0.5 to 2.5 uM measured after 72 hrs post fertilization
- Parameters: species or system Danio rerio
- CONDITION NOTES: in vivo, dose 0.5-2.5 µM

- STRUCTURE SMILES STRING: "COc1ccc(S(=O)(=O)n2cc(Cc3ccc(C(=O)Nc4ccccc4N)cc3)c3ccccc32)cc1"
  survival at 72 h, up to 2.5 µM: "~100%"
